Give measured IC50 for each item. Keep answers brief.
# experimental.details: microbe, parasite or virus in culture
# condition.description: Mycobacterium tuberculosis, 72 h, read-out: pIC50 (converted)

Task: # input molecule: Cc1cccc(C[S+]([O-])CC(=O)NCC2CC2)c1 (stereo not given) ; wanted: its IC50
Output: > 501 µM

Task: // same read-out, input: O=C(NCC1(c2ccc(F)cc2)CC1)N1CCC2(CCOC2)C1 (stereo not given)
Output: > 50.1 µM

Task: // same read-out, input: COC(=O)CNC(=O)c1ccc(C)c(-n2cccc2)c1
Output: > 501 µM

Task: // same read-out, input: CN1CCC(CNC(=O)c2cccc(C(F)(F)F)c2)c2ccccc21 (stereo not given)
Output: 45.5 µM

Task: // same read-out, input: NCCc1cccc2cc[nH]c12
Output: 177 µM

Task: // same read-out, input: Cc1ccc(-c2cc(CS(=O)(=O)NC3CCCNC3=O)on2)cc1 (stereo not given)
Output: > 50.1 µM

Task: // same read-out, input: CC(Cn1c(=O)[nH]c2ccccc2c1=O)N1CCCC1 (stereo not given)
Output: 63.1 µM

Task: // same read-out, input: CC(=O)c1c(F)cccc1N1CCOCC1
Output: > 501 µM

Task: // same read-out, input: Cc1ccc(NC(=O)Cn2ccnc2)cc1
Output: 159 µM

Task: // same read-out, input: COc1cccc(-c2noc(-c3ccc(NCCCO)nc3)n2)c1OC
Output: > 50.1 µM

Task: // same read-out, input: COc1cccc2c1OCC(C(=O)N1CCN(C3CCCC3)C(=O)C1)C2 (stereo not given)
Output: > 50.1 µM

Task: // same read-out, input: O=C(CCc1ccccc1)N1CCCNCC1
Output: 192 µM

Task: // same read-out, input: Fc1ccc(NCC2CCC3(CC2)OCCO3)nc1
Output: 264 µM

Task: // same read-out, input: CCc1nc(CNC)cs1
Output: 305 µM

Task: // same read-out, input: NC(=O)COc1cc(Cl)cc(Cl)c1
Output: 246 µM

* * *

# experimental.details: microbe, parasite or virus in culture
# condition.description: Mycobacterium tuberculosis, 72 h, read-out: pIC50 (converted)
Give measured IC50 for each item. Keep answers brief.

Task: # input molecule: O=c1c(Cc2ccccc2)c(O)ccn1Cc1cccs1 ; wanted: its IC50
Output: > 50.1 µM

Task: // same read-out, input: CCCC(O)CNc1cncc(Br)c1 (stereo unspecified)
Output: > 50.1 µM

Task: // same read-out, input: NS(=O)(=O)c1ccc(NC(=O)Cn2ccnc2)cc1
Output: > 501 µM

Task: // same read-out, input: Cc1cccc2cc(CO)c(N3Cc4cnc(C(C)(C)C)nc4C3)nc12
Output: > 50.1 µM

Task: // same read-out, input: CSCCNC(=O)c1coc(COc2ccc3sc(C)nc3c2)n1
Output: > 50.1 µM

Task: // same read-out, input: OC(CN1CCn2ccnc2C1)c1cccc(F)c1 (stereo unspecified)
Output: > 501 µM

* * *

Give measured IC50 for each item. Keep answers brief.
# experimental.details: microbe, parasite or virus in culture
# condition.description: Mycobacterium tuberculosis, 96 h, read-out: pIC50 (converted)
All answers are understood in µM, so give the number only.

Task: # input molecule: CCn1nnnc1SCc1cc(C#N)ccc1F ; wanted: its IC50
Output: 87.5

Task: // same read-out, input: O=C(NC1CCc2ccc(F)cc21)c1c[nH]nn1 (centres undefined)
Output: 399

Task: // same read-out, input: CS(=O)(=O)N1CCC(COCc2ccccc2)C1 (centres undefined)
Output: 165

Task: // same read-out, input: Clc1ccc(OCCc2cc(C3CCN(c4ncccn4)C3)n[nH]2)cc1 (centres undefined)
Output: 26.1

* * *

Give measured IC50 for each item. Keep answers brief.
# experimental.details: microbe, parasite or virus in culture
# condition.description: Mycobacterium tuberculosis, 96 h, read-out: pIC50 (converted)

Task: # input compound: COc1ccc(CNC(C)c2ccc(Cl)c(Cl)c2)c(OC)c1OC (stereo not drawn) ; wanted: its IC50
Output: > 50.1 µM

Task: // same read-out, input: NCCNS(=O)(=O)c1cccc(I)c1
Output: > 501 µM

Task: // same read-out, input: CC(C)C(O)CCNC(=O)Cc1cccc(O)c1 (stereo not drawn)
Output: > 501 µM

Task: // same read-out, input: Cc1ccccc1OCC1CCCN(c2cc(N)nc(N)n2)C1 (stereo not drawn)
Output: 30.1 µM

Task: // same read-out, input: Cc1ccc(N2CCN(C(=O)CCC(F)(F)F)C(C)C2)cc1 (stereo not drawn)
Output: > 50.1 µM

Task: // same read-out, input: NC1CCCc2occc21 (stereo not drawn)
Output: 245 µM

Task: // same read-out, input: COc1cc(OC)cc(-c2cccc3c2OC(CN)C3)c1 (stereo not drawn)
Output: 20 µM

Task: // same read-out, input: COc1coc(CN2CCCC(CCc3ccc(F)cc3)C2)cc1=O (stereo not drawn)
Output: 23.1 µM

* * *

# Tested on: Schistosoma mansoni
# experimental.details: High throughput screening of compounds against Schistosoma mansoni motility
# Type: functional
# Parameters: dose or concentration left out as unconfirmed
measured.endpoint: Percent Effect

Task: # input molecule: Brc1cc2c(cc1CN1CCC(N3CCCCC3)CC1)OCCO2 ; wanted: its Percent Effect
Output: -13%

Task: // same read-out, input: COC(=O)c1sccc1S(=O)(=O)N1CCC(Oc2ncccc2Cl)CC1
Output: -59.58%

Task: // same read-out, input: CN(C)CCN(Cc1cccc(C(F)(F)F)c1)C(=O)c1cc[nH]n1
Output: 19.83%

Task: // same read-out, input: O=C(NCC(F)F)N1CCC(n2ccc(C(F)(F)F)n2)CC1
Output: -27.04%

Task: // same read-out, input: Cc1cccnc1CN1CCC(c2nnc(Cn3cccn3)n2C)CC1
Output: -11.55%

Task: // same read-out, input: NS(=O)(=O)N1CCc2ccc(NC(=O)Cc3ccc(F)cc3)cc21
Output: -30.69%

Task: // same read-out, input: CS(=O)(=O)c1ccccc1C(=O)NCC1Cc2ccccc2O1 (stereo unspecified)
Output: -25.81%

Task: // same read-out, input: COCCN(Cc1ccc(F)cc1Cl)C(=O)c1cccc[n+]1[O-]
Output: -17.57%

Task: // same read-out, input: CC(Cn1cncn1)NCc1nncn1C1CCCCC1 (stereo unspecified)
Output: 4.936%

Task: // same read-out, input: CCN1CCCC1CN(CCN(C)C)S(=O)(=O)c1cccc(C#N)c1 (stereo unspecified)
Output: 27.57%

Task: // same read-out, input: COc1ccccc1OCC(=O)Nc1ncccc1OC(F)F
Output: 13.82%

Task: // same read-out, input: O=C(CCc1ccsc1)NCC1CCN(c2ccccc2)C1 (stereo unspecified)
Output: 6.73%

Task: // same read-out, input: O=C(Nc1ccc(F)cc1)N1C[C@H]2CC[C@@H]1CN(Cc1cccnc1)C2
Output: -3.001%

Task: // same read-out, input: OCCOc1nc(-c2ccccc2Cl)no1
Output: -41.46%

Task: // same read-out, input: Cc1nc(CN2CCC(N(C)Cc3noc(C(C)C)n3)C2)cs1 (stereo unspecified)
Output: -19.62%

Task: // same read-out, input: CCCNC(=O)C(C)NC(=O)CCc1ccccc1Br (stereo unspecified)
Output: 31.68%

Task: // same read-out, input: Cc1nn(C)c(C)c1C1COCCN1C(=O)Cc1cccc(F)c1 (stereo unspecified)
Output: -11.98%

Task: // same read-out, input: CCCS(=O)(=O)Nc1ccc2c(c1)OCC(C)(C)C(=O)N2C
Output: 7.848%

Task: // same read-out, input: CCOc1ncccc1NC(=O)c1cc(C)c(C)s1
Output: -34.96%

Task: // same read-out, input: CSc1ccccc1CN1CCn2nc(CNC(C)=O)cc2C1
Output: -11.64%

Task: // same read-out, input: Cc1ccc(F)c(OC2(C(=O)O)CCN(C(=O)N3CCCC3)CC2)c1
Output: -4.164%

Task: // same read-out, input: OC1CCN(Cc2cc3c(cc2Br)OCCO3)CC1
Output: 8.478%

Task: // same read-out, input: Cc1c[nH]c(CN(C)c2nc(C3CCCC3)nc3c2cnn3C)n1
Output: -22.17%

Task: // same read-out, input: CCc1n[nH]c(C2CN(CC(=O)NCCc3ccsc3)CCO2)n1 (stereo unspecified)
Output: -30.25%

Task: // same read-out, input: Cc1nc(C(C)(C)NC(=O)Nc2ccccc2)no1
Output: -55.91%

Task: // same read-out, input: CN(Cc1nccs1)c1nc(-c2ccccn2)nc2c1CCNCC2
Output: -21.71%

Task: // same read-out, input: Cc1csc(CNC(=O)Nc2cc(C(F)(F)F)c[nH]c2=O)n1
Output: 7.294%

Task: // same read-out, input: COCc1cn([C@@H]2c3ccccc3C3(CCNCC3)[C@H]2O)nn1
Output: -22.09%

Task: // same read-out, input: O=C(CCc1cc2n(n1)CCCN(C(=O)c1ccccn1)C2)NC1CC1
Output: -25.84%

Task: // same read-out, input: COc1ccc(NC(=O)NC(C)(C)c2noc(C)n2)cc1
Output: -52.77%

Task: // same read-out, input: CSCC(=O)N1C[C@H]2CC[C@@H]1CN(Cc1ccccc1)C2
Output: 13.06%

Task: // same read-out, input: CN(Cc1cnn(C)c1)C(=O)NC1CCS(=O)(=O)C1 (stereo unspecified)
Output: -4.908%

Task: // same read-out, input: O=C(NCCO)Nc1cccc(Cl)c1SC(F)F
Output: -20.44%

Task: // same read-out, input: Cc1nc(C)n(CC2CCCN2CCCc2ccccc2)n1 (stereo unspecified)
Output: -9.599%

Task: // same read-out, input: CNC(=O)CS(=O)(=O)C1CCN(S(=O)(=O)c2ccccc2Br)CC1
Output: -49.15%

Task: // same read-out, input: Cc1nc(C)n(CC2CN(CC(=O)Nc3nccs3)CCO2)n1 (stereo unspecified)
Output: -3.889%

Task: // same read-out, input: CN(C)C(CNS(=O)(=O)c1ccc(F)cc1F)c1cccn1C (stereo unspecified)
Output: 13.79%

Task: // same read-out, input: O=C(c1cc(=O)[nH]c(=O)[nH]1)N1CCCCC1c1ccc(F)cc1 (stereo unspecified)
Output: -6.768%

Task: // same read-out, input: CCc1nnc2n1CCN(C(=O)c1ccc3[nH]cnc3c1)C2
Output: 19.35%

Task: // same read-out, input: CNC(=O)C(C)(C)NC(=O)c1cc(OCC2CCC2)cc(C(=O)OC)c1
Output: -68.4%

Task: // same read-out, input: Cc1nc(C2CCCN(C(=O)c3scnc3C)C2)no1 (stereo unspecified)
Output: 18.51%

Data origin: ChEMBL document CHEMBL3988442
